Each item that follows carries a reported Internalization %, MDA-MB-231, 2 µg/ml, 4 h.
- target entity: T1, human Trop-2 expressed on cell surface (human, UniProt P09758 27-323)
- T1 sequence (looked up): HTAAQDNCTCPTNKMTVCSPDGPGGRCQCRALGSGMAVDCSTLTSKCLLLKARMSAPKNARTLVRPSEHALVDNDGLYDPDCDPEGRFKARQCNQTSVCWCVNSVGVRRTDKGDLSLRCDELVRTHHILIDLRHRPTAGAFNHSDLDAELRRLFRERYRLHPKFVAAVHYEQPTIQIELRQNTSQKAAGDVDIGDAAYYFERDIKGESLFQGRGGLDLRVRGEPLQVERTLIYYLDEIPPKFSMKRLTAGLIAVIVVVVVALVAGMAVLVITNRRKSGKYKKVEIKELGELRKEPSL
- assay method text: cell-based or functional assay
Give just the numeric value; % need not be written.

10A9-2 (antibody, V domains shown) VH: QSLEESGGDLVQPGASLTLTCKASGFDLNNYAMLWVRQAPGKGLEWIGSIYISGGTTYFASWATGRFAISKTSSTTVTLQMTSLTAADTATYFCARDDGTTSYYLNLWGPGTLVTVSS VL: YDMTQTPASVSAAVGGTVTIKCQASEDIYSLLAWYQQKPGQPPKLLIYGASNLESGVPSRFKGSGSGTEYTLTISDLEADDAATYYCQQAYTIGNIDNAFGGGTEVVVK; 58
63H3 (antibody, V domains shown, Rabbit-derived clone; LEM construct: VH + rabbit IgG CH1 + human IgG1 CH2-CH3) VH: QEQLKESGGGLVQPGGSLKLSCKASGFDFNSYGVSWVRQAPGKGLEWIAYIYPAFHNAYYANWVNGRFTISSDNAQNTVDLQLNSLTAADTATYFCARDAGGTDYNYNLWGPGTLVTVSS VL: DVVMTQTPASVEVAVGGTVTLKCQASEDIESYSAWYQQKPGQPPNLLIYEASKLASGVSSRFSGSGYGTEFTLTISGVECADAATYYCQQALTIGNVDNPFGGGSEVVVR; 39

// moving on: another record for Internalization %, MDA-MB-231, 2 µg/ml, 4 h
Query: Look up and state reported Internalization %, MDA-MB-231, 2 µg/ml, 4 h for 1D10 (antibody, V domains shown, Rabbit-derived clone; LEM construct: VH + rabbit IgG CH1 + human IgG1 CH2-CH3) VH: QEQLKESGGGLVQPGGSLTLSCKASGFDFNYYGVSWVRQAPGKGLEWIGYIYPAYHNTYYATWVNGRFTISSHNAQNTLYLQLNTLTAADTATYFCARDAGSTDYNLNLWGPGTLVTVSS VL: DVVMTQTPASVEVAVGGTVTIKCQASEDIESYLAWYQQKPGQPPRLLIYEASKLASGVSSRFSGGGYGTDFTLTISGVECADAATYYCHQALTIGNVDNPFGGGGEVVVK
Result: 44

meta.source: patent US20250206841A1
